molecular target: recombinant human GR (Homo sapiens, UniProt P04150); assay: GR Competitive Binding Assay; conditions: after correction for compound determined to be in solution by HPLC analysis; read-out: IC50, competition with [6,7-3H(N)]-dexamethasone for binding to GR
Sequence (P04150 whole entry, other chains not shown): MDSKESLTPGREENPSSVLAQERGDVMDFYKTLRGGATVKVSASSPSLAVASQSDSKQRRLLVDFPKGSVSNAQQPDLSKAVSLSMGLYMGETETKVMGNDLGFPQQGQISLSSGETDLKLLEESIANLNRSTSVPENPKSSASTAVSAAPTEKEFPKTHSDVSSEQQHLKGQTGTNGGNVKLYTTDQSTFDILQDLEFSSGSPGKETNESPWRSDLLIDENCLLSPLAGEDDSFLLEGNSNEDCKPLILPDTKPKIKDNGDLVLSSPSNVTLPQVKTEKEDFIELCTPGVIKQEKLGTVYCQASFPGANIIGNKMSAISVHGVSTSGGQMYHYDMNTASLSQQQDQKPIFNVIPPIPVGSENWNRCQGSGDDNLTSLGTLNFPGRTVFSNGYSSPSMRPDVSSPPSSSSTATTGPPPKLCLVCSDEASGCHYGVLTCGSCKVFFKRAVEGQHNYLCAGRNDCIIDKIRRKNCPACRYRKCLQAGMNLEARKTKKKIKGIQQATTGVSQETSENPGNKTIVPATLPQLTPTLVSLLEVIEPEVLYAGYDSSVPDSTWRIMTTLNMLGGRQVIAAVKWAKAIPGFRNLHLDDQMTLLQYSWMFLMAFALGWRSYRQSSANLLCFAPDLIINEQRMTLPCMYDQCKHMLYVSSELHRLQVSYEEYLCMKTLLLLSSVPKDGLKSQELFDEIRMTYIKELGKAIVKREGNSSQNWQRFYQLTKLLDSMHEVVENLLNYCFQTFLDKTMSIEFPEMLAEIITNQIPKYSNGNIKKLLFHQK
property.measured: IC50 (nM)
The reply should contain only the number, in nM.

Prompt: Please supply the value of reported IC50 for the item COc1cc(C(=O)c2cccc(C)c2)c(Oc2c(Br)cc(CC(=O)O)cc2Br)cc1C(C)C [EXRS1370SE]
Response: 69
